experiment: caspase-8 TRAIL sensitization, hit retest, confirmation, cell-based, NB7+caspase-8, with/without TRAIL, luminescence panel (AID 651596); details: NB7 neuroblastoma + caspase-8, without TRAIL, luminescence viability, without TRAIL, mean of runs, at 10 µM
Output schema: class label derived from activity. Mapping: small value (below 60%), mid value (60% to below 80%), large value (80% or more)

compound | group
Fc1cccc2sc(Nc3nnc(-c4ccccc4)o3)nc12 | mid value
CC(=O)Oc1ccccc1/C=C/c1nc2ccccc2c(=O)o1 | large value
O=C1C(=Cc2ccc(F)cc2)CCc2ccccc21 | mid value
CCN(CC)C(=O)c1nn(-c2ccccc2)c2c1C1CCC2(C)C1(C)C (centres undefined) | small value
CC(/C=N/NC(=O)c1n[nH]c2c1CCC2)=C\c1ccccc1 | mid value
O=C(CCl)N(CCc1ccccc1)CCc1ccccc1 | large value
COc1ccccc1C=NNC(=O)NN=Cc1ccccc1OC | small value
CCN(CC)CCN1C(=O)/C(=C\c2ccc(Cl)c([N+](=O)[O-])c2)SC1=Nc1ccc(OC)cc1 | large value
O=C(CSc1nc2ccccc2c(=O)[nH]1)Nc1ccc([N+](=O)[O-])cc1 | small value
C#Cc1ccc(NC(=O)C2(C)CCN2C(=O)CC(c2ccccc2)c2ccccc2)cc1 (centres undefined) | large value
O=C1CN(C(=O)Cn2ncc(Cl)c(Cl)c2=O)c2ccccc2N1 | large value
Cc1ccc(-c2cc(C(=O)N3CCCC3)no2)cc1 | mid value
COc1ccccc1Nc1nc(N)nc(CCl)n1 | large value
C/C(=N\NC(=O)c1cc(O)ccc1O)c1cccc(NC(=O)c2ccc(Cl)cc2)c1 | small value
O=C(Nc1nc2ccccc2[nH]1)c1ccc(F)cc1 | large value
O=C(Nc1ncc(Cc2ccccc2)s1)c1cccs1 | mid value
CC(C)(C)NC(=O)C(c1ccncc1)n1c(-c2ccc(C(F)(F)F)cc2)nc2ccccc21 (centres undefined) | large value
O=C(/C=C/c1ccc([N+](=O)[O-])cc1)Nc1ncc([N+](=O)[O-])s1 | mid value
c1ccc(-c2ccc(-c3nc(-c4ccccn4)no3)cc2)cc1 | large value
CC(=O)c1sc(NC(=O)c2cc(=O)c3ccccc3o2)nc1C | small value
COC(=O)c1ccc2c(c1)C(C)(C)C(/C=C/c1ccc(OC)c(OC)c1OC)=[N+]2C | mid value
CCCOc1ccc(-c2cn3ccccc3n2)cc1 | large value
CN1/C(=C\C(=O)C[n+]2ccc(C(=O)c3ccccc3)cc2)C(C)(C)c2ccccc21 | small value
O=C(Nc1cc(S(=O)(=O)N2CCOCC2)ccc1N1CCOCC1)c1ccc([N+](=O)[O-])s1 | small value
COC(=O)c1ccccc1NC(=O)c1cc(-c2ccc(O)cc2)on1 | small value
Cc1cc(N2CCOCC2)n2ncc(-c3ccccc3)c2n1 | small value
Cc1ccc2oc(-c3cccc(N)c3)nc2c1 | small value
Cc1ccc(-c2nn(CC(=O)NCc3cc(-c4nn(C)c(=O)c5ccccc45)ccc3C)c(=O)c3ccccc23)cc1 | small value
CCc1ccc2nc(N(CCCN(C)C)C(=O)c3ccc(S(=O)(=O)N4CCc5ccccc5C4)cc3)sc2c1 | mid value
CC1(C)Cc2c(sc(NC(=O)COc3cccc4ccccc34)c2C#N)C(C)(C)N1 | large value
COc1ccc(-c2ccc(SC)nn2)cc1 | large value
